B1: NEK8 (parent)
chain: YTFGSNQHGQLGTNTRRGSRAPCK

Variants of: B1
Assay: protein stability index of a GFP-peptide fusion (GPS, HEK-293T) (PSI 1-6); higher = more stable;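 note: lentivirally expressed fusions sorted by FACS into six bins by GFP to DsRed ratio, PSI derived from sequencing read proportions per bin multiplied by bin number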
Conditions: c terminus: a fixed tail appended
Tag: T if measured protein stability index is not below 4, F if it is.

Some solved entries appear below for comparison.
1. Q10D ... T
2. T15D ... F
3. T13L ... F
4. G9V ... F
5. A21G ... F

Proceed to the following item.
Can L11K be said to have protein stability index at or above 4?
F
